Origin of measurements: patent US10710978B2

- Assay system: STK3 (MST2) (Homo sapiens (Human), UniProt Q13188)
- Sequence (Q13188 whole entry): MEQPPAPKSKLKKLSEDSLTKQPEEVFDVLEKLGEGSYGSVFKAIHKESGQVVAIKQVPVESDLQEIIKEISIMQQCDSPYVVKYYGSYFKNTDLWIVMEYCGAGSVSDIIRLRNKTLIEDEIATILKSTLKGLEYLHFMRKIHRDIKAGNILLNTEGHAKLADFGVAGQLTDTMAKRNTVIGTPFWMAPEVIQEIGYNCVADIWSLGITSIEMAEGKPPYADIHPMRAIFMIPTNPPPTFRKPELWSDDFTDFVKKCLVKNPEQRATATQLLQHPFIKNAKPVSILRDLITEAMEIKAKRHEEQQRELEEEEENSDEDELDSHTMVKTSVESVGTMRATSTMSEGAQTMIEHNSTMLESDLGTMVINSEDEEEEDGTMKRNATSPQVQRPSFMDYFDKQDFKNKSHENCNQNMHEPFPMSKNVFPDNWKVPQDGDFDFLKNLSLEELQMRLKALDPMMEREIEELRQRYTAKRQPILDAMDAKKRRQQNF
Quantity name: IC50

Using STK3 (MST2) (Homo sapiens (Human), UniProt Q13188) as the test system, report measured IC50 of Nc1ncc(-c2scnc2Cl)cc1-c1ccc2c(c1)CCNC2=O . 40 to 200 nM

----------
- Assay system: MAP3K2 (Homo sapiens (Human), UniProt Q9Y2U5)
- Sequence (Q9Y2U5 whole entry): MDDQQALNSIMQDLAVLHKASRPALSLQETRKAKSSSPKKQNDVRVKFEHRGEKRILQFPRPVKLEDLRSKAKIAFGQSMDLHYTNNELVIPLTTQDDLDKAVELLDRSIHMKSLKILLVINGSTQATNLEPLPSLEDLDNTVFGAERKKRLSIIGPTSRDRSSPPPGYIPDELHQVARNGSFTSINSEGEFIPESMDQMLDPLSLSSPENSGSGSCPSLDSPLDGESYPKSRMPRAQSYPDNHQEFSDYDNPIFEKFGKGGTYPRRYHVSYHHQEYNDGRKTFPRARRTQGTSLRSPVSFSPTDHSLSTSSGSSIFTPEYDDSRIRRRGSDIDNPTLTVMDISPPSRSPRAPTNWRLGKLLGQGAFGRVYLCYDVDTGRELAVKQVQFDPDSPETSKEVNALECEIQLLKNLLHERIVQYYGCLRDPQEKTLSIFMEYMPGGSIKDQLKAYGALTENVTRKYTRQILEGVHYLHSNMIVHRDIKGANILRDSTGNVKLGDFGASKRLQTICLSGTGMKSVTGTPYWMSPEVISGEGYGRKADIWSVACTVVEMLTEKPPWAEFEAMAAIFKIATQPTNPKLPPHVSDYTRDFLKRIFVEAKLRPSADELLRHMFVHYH
- Protocol details: KiNativ assay
- Assay type: binding
- Test settings: H929 live cell, read-out: inhibition (10 μM)
Listing of entries alongside the reported inhibition at 10 µM.
// note: answer is a bare numeric in %

For orientation, consider the following solved cases.
>>> print(df.to_string())
                              line_notation  measured_number
0  CN(C1CC1)S(=O)(=O)c1ccc(-c2cnc(N)c(-c3ccc4c(c3)CCNC4=O)c2)c(F)c1                7
1  COc1cc(NS(=O)(=O)C2CC2)ccc1-c1cnc(N)c(-c2ccc3c(c2)CCNC3=O)c1            -39.1
2  Nc1ncc(-c2cccc([N+](=O)[O-])c2F)cc1-c1ccc2c(c1)CCNC2=O              0.3
3  Nc1ncc(-c2ccc(NS(=O)(=O)C3CC3)cc2OC2CCCCC2)cc1-c1ccc2c(c1)CCNC2=O             -3.9
4  Nc1ncc(-c2ccc(NS(=O)(=O)C3CC3)cc2F)cc1-c1ccc2c(c1)CCNC2=O            -11.2

Now, please, on to the next molecule.
Tell me inhibition at 10 µM reported for Nc1ncc(-c2cccc3ncsc23)cc1-c1ccc2c(c1)CCNC2=O -23.5
